Numbers sourced from paper PMC12591191.

# TARGET ENTITY: SIRT6 G60A (Homo sapiens)
# Sequence (chain, as listed by the source G60A): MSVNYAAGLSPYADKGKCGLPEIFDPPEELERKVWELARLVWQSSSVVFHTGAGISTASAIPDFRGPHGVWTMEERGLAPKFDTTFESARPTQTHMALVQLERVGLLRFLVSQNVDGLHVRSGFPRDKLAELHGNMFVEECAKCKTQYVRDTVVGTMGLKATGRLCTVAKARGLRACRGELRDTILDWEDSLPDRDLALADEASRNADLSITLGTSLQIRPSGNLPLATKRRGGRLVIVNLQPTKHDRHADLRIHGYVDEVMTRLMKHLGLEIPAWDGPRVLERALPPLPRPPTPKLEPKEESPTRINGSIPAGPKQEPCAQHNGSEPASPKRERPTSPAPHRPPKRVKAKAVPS
# ASSAY TEXT: BLI
Where no end group is shown, it is not given here. The star is where a group is joined. Biotin = O=C1N[C@H]2[C@H](CS[C@H]2CCCCC(=O)*)N1; Myristoyl = CCCCCCCCCCCCCC(=O)*
PROPERTY NAME: Kd

*Q* What value of Kd has been recorded for this entry: Biotin-KQTARK(Myristoyl)STGGKARRRRR [B-H3K9^Myr-5R (biotin-KQTARK^MyrSTGGKARRRRR)]
*A* 1300 nM
